The following compounds are listed with their measured Activity values.
# test system: ATP-dependent translocase ABCB1 (Homo sapiens)
# Sequence (P08183 whole entry): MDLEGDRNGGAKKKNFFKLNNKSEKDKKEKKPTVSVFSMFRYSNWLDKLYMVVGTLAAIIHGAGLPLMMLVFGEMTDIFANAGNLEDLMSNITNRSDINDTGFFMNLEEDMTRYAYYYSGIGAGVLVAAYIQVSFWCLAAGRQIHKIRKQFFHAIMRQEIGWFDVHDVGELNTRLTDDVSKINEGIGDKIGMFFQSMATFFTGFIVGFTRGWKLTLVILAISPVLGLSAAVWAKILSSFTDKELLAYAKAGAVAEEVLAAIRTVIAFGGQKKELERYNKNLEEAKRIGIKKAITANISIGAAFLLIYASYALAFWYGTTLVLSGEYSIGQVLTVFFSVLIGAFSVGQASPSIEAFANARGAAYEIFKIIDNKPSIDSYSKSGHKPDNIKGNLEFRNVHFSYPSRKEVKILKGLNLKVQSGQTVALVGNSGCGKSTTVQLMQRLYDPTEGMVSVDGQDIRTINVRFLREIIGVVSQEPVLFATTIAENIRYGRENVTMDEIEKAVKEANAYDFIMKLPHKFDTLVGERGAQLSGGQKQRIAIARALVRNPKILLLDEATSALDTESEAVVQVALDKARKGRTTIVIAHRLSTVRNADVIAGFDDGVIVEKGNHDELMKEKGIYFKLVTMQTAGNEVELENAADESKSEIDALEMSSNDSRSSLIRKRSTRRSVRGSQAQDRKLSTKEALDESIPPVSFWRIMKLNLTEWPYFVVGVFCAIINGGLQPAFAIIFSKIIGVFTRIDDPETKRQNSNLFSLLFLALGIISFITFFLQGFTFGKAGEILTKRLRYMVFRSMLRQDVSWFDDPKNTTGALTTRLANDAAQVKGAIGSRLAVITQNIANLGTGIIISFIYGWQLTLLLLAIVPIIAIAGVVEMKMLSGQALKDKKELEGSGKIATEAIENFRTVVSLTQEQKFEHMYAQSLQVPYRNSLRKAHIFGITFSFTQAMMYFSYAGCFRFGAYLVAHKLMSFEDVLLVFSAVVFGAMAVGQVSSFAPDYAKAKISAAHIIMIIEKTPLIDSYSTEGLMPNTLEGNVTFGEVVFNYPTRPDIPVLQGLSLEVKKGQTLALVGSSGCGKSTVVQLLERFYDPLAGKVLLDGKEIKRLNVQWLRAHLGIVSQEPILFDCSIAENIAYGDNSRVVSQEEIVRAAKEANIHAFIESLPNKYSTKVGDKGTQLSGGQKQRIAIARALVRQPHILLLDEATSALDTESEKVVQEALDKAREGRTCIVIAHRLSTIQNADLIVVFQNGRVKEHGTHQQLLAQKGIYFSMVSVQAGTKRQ
# assay details: Inhibition of MDR1-mediated efflux-pump activity in mouse L5178Y cells expressing human MDR1 assessed as forward scattered light at 20 uM preincubated for 10 mins followed by rhodamine-123 addition measured after 20 mins by flow cytometry (reference value: 455.7 to 509.9)
# Assay type: cell-based

- compound: "CC(C)=C[C@@H](C[C@@H](C)[C@H]1CC[C@@]2(C)[C@@H]3[C@@H](OC(=O)c4ccccc4)C=C4[C@@H](CC[C@H](OC(=O)c5ccccc5)C4(C)C)[C@]3(C)CC[C@]12C)OC(=O)c1ccccc1"
  Activity: 538.1
- compound: "CO[C@H]1C=C2[C@@H](CC[C@H](OC(=O)/C=C/c3ccccc3)C2(C)C)[C@]2(C)CC[C@]3(C)[C@@H]([C@H](C)C[C@H](C=C(C)C)OC(=O)/C=C/c4ccccc4)CC[C@@]3(C)[C@H]12 [KARAVOATE P]"
  Activity: 503
- compound: "CO[C@H]1C=C2[C@@H](CC[C@H](OC(=O)c3ccc(Cl)cc3)C2(C)C)[C@]2(C)CC[C@]3(C)[C@@H]([C@H](C)C[C@H](C=C(C)C)OC(=O)c4ccc(Cl)cc4)CC[C@@]3(C)[C@H]12 [KARAVOATE L]"
  Activity: 512.2
